The origin of these recorded values is paper PMC9743148.

assay: clinical; details: human, plasma, oral, 36 mg, Cmax, 36 mg t.i.w., cycle 1 Day 1, mean
property label: Cmax
Be sure to follow the number with its unit.

Would you kindly share the measured Cmax for C=CC(=O)N1CC[C@H](n2nc(C#Cc3cc(OC)cc(OC)c3)c3c(N)ncnc32)C1 ?
556 ng/mL

* * *

test: clinical; settings: human, plasma, oral, 160 mg, AUC0–last, 160 mg t.i.w., cycle 1 Day 1, mean
property label: AUC(0-t) (ng·h/mL)
Report only the number, with the unit ng·h/mL understood.

Using the record for C=CC(=O)N1CC[C@H](n2nc(C#Cc3cc(OC)cc(OC)c3)c3c(N)ncnc32)C1 , report its AUC(0-t).
7980
